- TEST TARGET: T1, human MICA002 on cells (human)
- T1 chain: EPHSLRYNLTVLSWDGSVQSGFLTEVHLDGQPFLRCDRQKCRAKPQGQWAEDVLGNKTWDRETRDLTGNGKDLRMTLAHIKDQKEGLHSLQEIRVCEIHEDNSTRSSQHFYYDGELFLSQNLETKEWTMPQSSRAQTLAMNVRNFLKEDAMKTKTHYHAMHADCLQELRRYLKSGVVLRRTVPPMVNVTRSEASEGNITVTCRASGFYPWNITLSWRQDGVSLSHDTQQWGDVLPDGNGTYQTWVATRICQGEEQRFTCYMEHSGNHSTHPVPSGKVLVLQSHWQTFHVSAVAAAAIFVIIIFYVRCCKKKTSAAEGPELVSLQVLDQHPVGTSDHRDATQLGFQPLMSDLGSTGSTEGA
- METHOD NOTES: flow cytometry, CHO-MICA002 cells
METRIC NAME: EC50 (µg/mL)
Reply numerically in µg/mL, unit not repeated.

Please review the following examples before continuing.
#38 (antibody, human IgG1, V domains shown, also called PL114H02; Hit ID 38) VH: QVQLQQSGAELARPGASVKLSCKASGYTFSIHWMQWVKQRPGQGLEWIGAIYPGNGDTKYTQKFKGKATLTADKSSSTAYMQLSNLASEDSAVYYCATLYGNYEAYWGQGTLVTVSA VL: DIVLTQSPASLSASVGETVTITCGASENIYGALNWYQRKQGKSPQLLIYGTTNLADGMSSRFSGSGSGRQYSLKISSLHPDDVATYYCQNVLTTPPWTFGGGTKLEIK | 2.48
#39 (antibody, human IgG1, V domains shown, also called PL114G03; Hit ID 39) VH: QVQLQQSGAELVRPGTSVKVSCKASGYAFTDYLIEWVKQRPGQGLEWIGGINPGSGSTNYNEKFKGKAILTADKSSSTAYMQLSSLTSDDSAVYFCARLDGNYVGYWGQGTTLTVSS VL: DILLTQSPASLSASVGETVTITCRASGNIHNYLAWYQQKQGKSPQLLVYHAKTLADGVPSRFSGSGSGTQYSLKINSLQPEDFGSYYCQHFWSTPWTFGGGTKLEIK | 3.68
#31 (antibody, human IgG1, V domains shown, also called PL116D11; Hit ID 31) VH: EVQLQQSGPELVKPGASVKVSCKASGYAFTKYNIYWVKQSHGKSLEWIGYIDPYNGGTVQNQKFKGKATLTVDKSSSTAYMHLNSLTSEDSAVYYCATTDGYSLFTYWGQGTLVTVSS VL: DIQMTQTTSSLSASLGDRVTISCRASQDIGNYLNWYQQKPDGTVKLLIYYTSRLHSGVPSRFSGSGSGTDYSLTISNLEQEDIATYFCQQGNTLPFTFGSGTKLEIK | 0.232

Any idea what its EC50 is? The binder is #40 (antibody, human IgG1, V domains shown, also called PL113C03; Hit ID 40) VH: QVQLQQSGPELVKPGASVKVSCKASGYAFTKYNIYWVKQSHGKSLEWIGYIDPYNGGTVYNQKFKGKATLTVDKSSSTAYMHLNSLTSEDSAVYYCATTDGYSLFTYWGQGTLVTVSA VL: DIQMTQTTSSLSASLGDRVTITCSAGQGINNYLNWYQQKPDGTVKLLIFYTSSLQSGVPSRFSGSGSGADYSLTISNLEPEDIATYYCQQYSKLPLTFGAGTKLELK
0.176

Next: 1D5 (antibody, human IgG1, kappa, V domains shown, also called ID5) VH: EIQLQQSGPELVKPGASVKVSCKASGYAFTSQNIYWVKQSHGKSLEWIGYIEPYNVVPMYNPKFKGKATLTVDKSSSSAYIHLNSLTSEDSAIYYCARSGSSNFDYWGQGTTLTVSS VL: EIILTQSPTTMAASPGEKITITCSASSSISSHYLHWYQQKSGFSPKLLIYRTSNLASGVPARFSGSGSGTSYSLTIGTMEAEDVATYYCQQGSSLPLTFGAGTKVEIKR
0.19

Value source: patent US20250368742A1
